Tested on: A549-ACE2 infected with SARS-CoV-2
EXPERIMENTAL_DETAILS: SARS-CoV-2 infection rate relative to DMSO; higher = more infection
TEST_PARAMETERS: 1 µM; 24 h

- MOLECULE: "CCN1CCN(Cc2ccc(C(=O)Nc3ccc(C)c(Oc4ccc5c(c4)CC(=O)N5)c3)cc2C(F)(F)F)CC1 [DDR1-IN-1]"
  UNIT_NAME: "%"
  SARS-CoV-2 infection rate: 61
- MOLECULE: "CCn1c2ccccc2c2cc(Nc3ccnc(NCCCN4CCOCC4)n3)ccc21 [EHop-016]"
  UNIT_NAME: "%"
  SARS-CoV-2 infection rate: 70
- MOLECULE: "OCCN1CCN(CCCN2c3ccccc3Sc3ccc(C(F)(F)F)cc32)CC1 [fluphenazine]"
  UNIT_NAME: "%"
  SARS-CoV-2 infection rate: 83
- MOLECULE: "O=C(NCc1ccccc1)c1csc(Nc2ccncn2)n1 [thiazovivin]"
  UNIT_NAME: "%"
  SARS-CoV-2 infection rate: 98

###

Tested on: A549-ACE2
EXPERIMENTAL_DETAILS: drug-induced phospholipidosis relative to tamoxifen; higher = more phospholipidosis
TEST_PARAMETERS: 0.833333 µM; 24 h
MEASURED_PARAMETER: drug-induced phospholipidosis

- MOLECULE: "O=C1/C(=C/c2ccccc2)C[C@@]2(O)[C@H]3Cc4ccc(O)c5c4[C@@]2(CCN3CC2CC2)[C@H]1O5"
  MEASURED_PARAMETER: "drug-induced phospholipidosis"
  VALUE_MEASURED: "2.81%"
- MOLECULE: "CCCCCCCCCCC(O)C1C=CC2C(=O)N(c3ccccc3)C(=O)C2N1Nc1ccc([N+](=O)[O-])cc1 (centres undefined)"
  MEASURED_PARAMETER: "drug-induced phospholipidosis"
  VALUE_MEASURED: "-1.14%"
- MOLECULE: "C=CC(=O)Nc1cccc(C)c1Nc1ncc2cc(-c3c(Cl)c(OC)cc(OC)c3Cl)ccc2n1"
  MEASURED_PARAMETER: "drug-induced phospholipidosis"
  VALUE_MEASURED: "0.46%"
- MOLECULE: "O=C(NCc1ccccc1)c1csc(Nc2ccncn2)n1"
  MEASURED_PARAMETER: "drug-induced phospholipidosis"
  VALUE_MEASURED: "-1.1%"

###

Listed here: items and their measured cell viability.
Test system: Vero E6
EXPERIMENTAL_DETAILS: cell viability relative to DMSO; higher = less toxic
TEST_PARAMETERS: 72 h; 10000 nM

- MOLECULE: "c1ccc(C(NCCNC(c2ccccc2)c2ccccc2)c2ccccc2)cc1"
  cell viability / %: 114
- MOLECULE: "Cc1cc(NCCO)nc(-c2ccc(Br)cc2)n1"
  cell viability / %: 84.6
- MOLECULE: "CCOC(=O)CNC(=O)[C@@H]1CCCN1C(=O)Cc1ccccc1"
  cell viability / %: 101
- MOLECULE: "CCCCCCCCCCCCc1ccc(S(=O)(=O)Nc2nncs2)cc1"
  cell viability / %: 104
- MOLECULE: "C[C@]1(COc2ccc(N3CCC(Oc4ccc(OC(F)(F)F)cc4)CC3)cc2)Cn2cc([N+](=O)[O-])nc2O1"
  cell viability / %: 99.8
- MOLECULE: "O=C1NCCc2[nH]c(-c3ccncc3)cc21"
  cell viability / %: 13.5
- MOLECULE: "Cc1cccc(C)c1NC(=O)C[N+](C)(C)C"
  cell viability / %: 99.7
- MOLECULE: "COc1ccccc1OCC(O)CO (stereo not given)"
  cell viability / %: 99.5
- MOLECULE: "O=C(O)CCC(=O)Nc1ccc(S(=O)(=O)Nc2nccs2)cc1"
  cell viability / %: 112
- MOLECULE: "N#CC(c1ccnc(OCc2ccc(CN3CCOCC3)cc2)n1)c1nc2ccccc2s1 (stereo not given)"
  cell viability / %: 98.8

###

Test system: Caco-2
EXPERIMENTAL_DETAILS: cell viability relative to DMSO; higher = less toxic
TEST_PARAMETERS: 72 h; 1 nM

- COMPOUND: "CC(=O)OCC(=O)[C@H]1CC[C@H]2[C@@H]3CCC4=CC(=O)CC[C@]4(C)[C@H]3CC[C@]12C [deoxycorticosterone-acetate]"
  ASSAYED_TARGET: "Caco-2"
  cell viability: "85.4%"
- COMPOUND: "C#C[C@]1(O)CC[C@H]2[C@@H]3CCC4=CC(=NO)CC[C@@H]4[C@H]3CC[C@@]21CC (mixture of isomers)"
  ASSAYED_TARGET: "Caco-2"
  cell viability: "89%"
- COMPOUND: "CCc1c2c(nc3ccc(O)cc13)-c1cc3c(c(=O)n1C2)COC(=O)[C@]3(O)CC"
  ASSAYED_TARGET: "Caco-2"
  cell viability: "99.4%"
- COMPOUND: "Cc1ccc2c(c1)Cc1c(C(=O)NC3CCCCC3)nn(-c3ccc(Cl)cc3Cl)c1-2"
  ASSAYED_TARGET: "Caco-2"
  cell viability: "91.8%"

###

System: Caco-2
EXPERIMENTAL_DETAILS: cell viability relative to DMSO; higher = less toxic
TEST_PARAMETERS: 72 h; 10 nM
Listed here: items and their measured cell viability.
MEASURED_PARAMETER: cell viability (%)

- MOLECULE: "CNC[C@H](O)[C@@H](O)[C@H](O)[C@H](O)CO [meglumine]"
  ASSAYED_TARGET: "Caco-2"
  UNIT_NAME: "%"
  VALUE_MEASURED: 76.1
- MOLECULE: "Nc1n[nH]c2nc3ccccc3nc12 [CDK1-5-inhibitor]"
  ASSAYED_TARGET: "Caco-2"
  UNIT_NAME: "%"
  VALUE_MEASURED: 105
- MOLECULE: "CCN[C@H]1CN(CCCOC)S(=O)(=O)c2sc(S(N)(=O)=O)cc21 [brinzolamide]"
  ASSAYED_TARGET: "Caco-2"
  UNIT_NAME: "%"
  VALUE_MEASURED: 95.2
- MOLECULE: "CN1CCC(COc2cnc(-c3cccc(Cn4nc(-c5cccc(C#N)c5)ccc4=O)c3)nc2)CC1"
  ASSAYED_TARGET: "Caco-2"
  UNIT_NAME: "%"
  VALUE_MEASURED: 99.7
- MOLECULE: "CC(=O)OCC1=C(C(=O)O)N2C(=O)[C@@H](NC(=O)CSc3ccncc3)[C@H]2SC1 [cephapirin]"
  ASSAYED_TARGET: "Caco-2"
  UNIT_NAME: "%"
  VALUE_MEASURED: 109
- MOLECULE: "COc1c2ccoc2cc2oc(=O)ccc12 [bergapten]"
  ASSAYED_TARGET: "Caco-2"
  UNIT_NAME: "%"
  VALUE_MEASURED: 94.1
- MOLECULE: "NCC(O)(CS(=O)(=O)O)c1ccc(Cl)cc1 (centres undefined) [2-hydroxysaclofen]"
  ASSAYED_TARGET: "Caco-2"
  UNIT_NAME: "%"
  VALUE_MEASURED: 96.2
- MOLECULE: "COc1cc2c(Oc3ccc(NC(=O)C4(C(=O)Nc5ccc(F)cc5)CC4)cc3F)ccnc2cc1OCCCN1CCOCC1 [foretinib]"
  ASSAYED_TARGET: "Caco-2"
  UNIT_NAME: "%"
  VALUE_MEASURED: 98.6
- MOLECULE: "CCOC(=O)OC(C)OC(=O)[C@@H]1N2C(=O)[C@@H](NC(=O)[C@H](N)c3ccccc3)[C@H]2SC1(C)C (some centres undefined) [bacampicillin]"
  ASSAYED_TARGET: "Caco-2"
  UNIT_NAME: "%"
  VALUE_MEASURED: 94

###

Test system: Calu-3
EXPERIMENTAL_DETAILS: cell viability relative to DMSO; higher = less toxic
TEST_PARAMETERS: 72 h; 10000 nM

- MOLECULE: "Cc1ccc(Cl)cc1N(CC(=O)Nc1c(F)cccc1F)S(C)(=O)=O [FPH1-(BRD-6125)]"
  ASSAYED_TARGET: "Calu-3"
  cell viability / %: 87.3
- MOLECULE: "NS(=O)(=O)c1cc2c(cc1Cl)NC(C1CC3C=CC1C3)NS2(=O)=O (centres undefined) [cyclothiazide]"
  ASSAYED_TARGET: "Calu-3"
  cell viability / %: 100
- MOLECULE: "CCOC(=O)CNC(=O)[C@@H]1CCCN1C(=O)Cc1ccccc1 [DVD-111]"
  ASSAYED_TARGET: "Calu-3"
  cell viability / %: 116
- MOLECULE: "CN1CCC(Nc2ncc3ncnc(Nc4ccc(F)c(Cl)c4)c3n2)CC1 [BIBX-1382]"
  ASSAYED_TARGET: "Calu-3"
  cell viability / %: 27.4
- MOLECULE: "CC(C)(Oc1ccc(Cl)cc1)C(=O)O [clofibric-acid]"
  ASSAYED_TARGET: "Calu-3"
  cell viability / %: 96.2
- MOLECULE: "CCCCCCCCCCCCCCCCCC(=O)OCC(O)CO (centres undefined) [monostearin]"
  ASSAYED_TARGET: "Calu-3"
  cell viability / %: 94.8
- MOLECULE: "CN(C)C/C=C(/c1ccc(Br)cc1)c1cccnc1 [zimelidine]"
  ASSAYED_TARGET: "Calu-3"
  cell viability / %: 93
- MOLECULE: "CC(=O)Nc1nc2c(Oc3cc(-c4ccc(C(F)(F)F)cc4)ncn3)cccc2s1 [AMG-517]"
  ASSAYED_TARGET: "Calu-3"
  cell viability / %: 92.5
- MOLECULE: "Cn1nccc1Nc1nccc(-c2ccn([C@H](CO)c3ccc(Cl)c(F)c3)c(=O)c2)n1 [GDC-0994]"
  ASSAYED_TARGET: "Calu-3"
  cell viability / %: 110
